target system: T1, ZFP SBS#1233 (synthetic)
T1 chain: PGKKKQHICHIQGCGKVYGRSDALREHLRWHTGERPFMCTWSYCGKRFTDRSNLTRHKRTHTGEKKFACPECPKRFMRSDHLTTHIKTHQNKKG
assay method text: EMSA
particulars: tags: MBP fusion
measure name: Kd

Could you share which Kd value was measured for TGGGACCTG (dsDNA) DNA 1: TGGGACCTG DNA 2: CAGGTCCCA ?
0.635 nM
